Target: methylenetetrahydrofolate dehydrogenase 1-like (MTHFD1L) (Homo sapiens, UniProt Q6UB35)
Construct: MTHFD1L (68–978 AA), recombinant from E. coli, MBP tag cleaved with thrombin
Sequence (Q6UB35 68-978): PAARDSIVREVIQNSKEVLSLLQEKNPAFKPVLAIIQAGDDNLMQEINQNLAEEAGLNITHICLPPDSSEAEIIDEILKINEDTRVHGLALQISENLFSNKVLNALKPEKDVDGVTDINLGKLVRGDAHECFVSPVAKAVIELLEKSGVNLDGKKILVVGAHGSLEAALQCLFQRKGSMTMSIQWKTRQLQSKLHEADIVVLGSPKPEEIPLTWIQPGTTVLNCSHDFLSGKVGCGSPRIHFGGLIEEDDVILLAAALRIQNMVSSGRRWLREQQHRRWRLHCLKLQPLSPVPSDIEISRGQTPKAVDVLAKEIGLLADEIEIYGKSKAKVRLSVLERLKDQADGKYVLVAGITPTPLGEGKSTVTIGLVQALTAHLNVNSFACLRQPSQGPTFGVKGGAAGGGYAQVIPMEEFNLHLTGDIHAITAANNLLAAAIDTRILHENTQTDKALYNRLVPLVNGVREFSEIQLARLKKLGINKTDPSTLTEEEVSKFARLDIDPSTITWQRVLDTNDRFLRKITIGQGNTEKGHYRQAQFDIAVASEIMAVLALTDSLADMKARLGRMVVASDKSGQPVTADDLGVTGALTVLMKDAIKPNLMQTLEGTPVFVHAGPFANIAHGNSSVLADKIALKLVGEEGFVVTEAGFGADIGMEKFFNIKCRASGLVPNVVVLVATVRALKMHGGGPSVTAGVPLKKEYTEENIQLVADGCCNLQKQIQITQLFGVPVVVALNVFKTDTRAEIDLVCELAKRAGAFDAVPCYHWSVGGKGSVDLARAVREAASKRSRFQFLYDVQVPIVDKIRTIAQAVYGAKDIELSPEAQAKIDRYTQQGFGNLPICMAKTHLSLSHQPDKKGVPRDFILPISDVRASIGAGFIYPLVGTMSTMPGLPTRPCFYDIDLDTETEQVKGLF
Assay: SPR (Biacore T200, steady-state affinity); supported by NMR STD, DARTS and ABPP competition
pKd: −log10 of the molar value.

# SAMPLE SMILES, pKd
data = [
    ("CC(=O)O[C@]12CCC(C)=CC[C@]13CC[C@H]2[C@@](C)(/C=C/C=C(\\C)C(=O)O)OC3=O", "~5.39"),
]
